- assay_procedure: Cytotoxicity against human MRC5 cells assessed as reduction in cell viability incubated for 72 hrs by MTS assay
- Assay type: toxicity, cell-based
observed_property: IC50 at 72 h

[
  {
    "compound": "C=C(C)[C@@H]1CC[C@]2(C(=O)OCc3oc(=O)oc3C)CC[C@]3(C)[C@H](CC[C@@H]4[C@@]5(C)Cc6nccnc6C(C)(C)[C@@H]5CC[C@]43C)[C@@H]12",
    "IC50 at 72 h": "> 50 µM"
  },
  {
    "compound": "CC(C)[C@@H]1CC[C@]2(C(=O)O)CC[C@]3(C)[C@H](CC[C@@H]4[C@@]5(C)CCC(=O)C(C)(C)[C@@H]5CC[C@]43C)[C@@H]12 [DIHYDROBETULONIC ACID]",
    "IC50 at 72 h": "> 50 µM"
  },
  {
    "compound": "CC1(C)CC[C@]2(C(=O)O)CC[C@]3(C)C(=CC[C@@H]4[C@@]5(C)CCC(=O)C(C)(C)[C@@H]5CC[C@]43C)[C@@H]2C1",
    "IC50 at 72 h": "> 50 µM"
  },
  {
    "compound": "CC1(C)CC[C@]2(C(=O)O)CC[C@]3(C)C(=CC[C@@H]4[C@@]5(C)Cc6cccnc6C(C)(C)[C@@H]5CC[C@]43C)[C@@H]2C1",
    "IC50 at 72 h": "> 50 µM"
  }
]

IN: Given the entry `C#CCOC(=O)[C@]12CC[C@@H](C(=C)C)[C@@H]1[C@H]1CC[C@@H]3[C@@]4(C)CC[C@H](O)C(C)(C)[C@@H]4CC[C@@]3(C)[C@]1(C)CC2` , report its measured IC50 at 72 h.
OUT: 26 µM

---

- Tested on: HCT-116
- assay_procedure: Cytotoxicity against human HCT-116 cells assessed as reduction in cell viability incubated for 72 hrs by MTS assay
- Type: functional, cell-based
- condition_description: HCT-116, 72 h
observed_property: IC50 (µM)
// return numeric value only (unit: µM, not printed)

The examples below pair each entry with its known result.
[
  {
    "compound": "C=C(C=O)[C@@H]1CC[C@]2(C(=O)OCc3cn([C@H]4O[C@H](COC(C)=O)[C@@H](OC(C)=O)[C@H](OC(C)=O)[C@H]4OC(C)=O)nn3)CC[C@]3(C)[C@H](CC[C@@H]4[C@@]5(C)Cc6nccnc6C(C)(C)[C@@H]5CC[C@]43C)[C@@H]12 (stereo in doubt)",
    "tgt": "HCT-116",
    "IC50 [µM]": 1.5
  },
  {
    "compound": "C=C(C=O)[C@@H]1CC[C@]2(C(=O)OCc3cn([C@H]4O[C@H](COC(C)=O)[C@@H](OC(C)=O)[C@H](OC(C)=O)[C@H]4OC(C)=O)nn3)CC[C@]3(C)[C@H](CC[C@@H]4[C@@]5(C)CC[C@H](O)C(C)(C)[C@@H]5CC[C@]43C)[C@@H]12",
    "tgt": "HCT-116",
    "IC50 [µM]": 1.6
  },
  {
    "compound": "C[C@H]1[C@H](C)CC[C@]2(C(=O)O)CC[C@]3(C)C(=CC[C@@H]4[C@@]5(C)Cc6nccnc6C(C)(C)[C@]5(C)CC[C@]43C)[C@H]12",
    "tgt": "HCT-116",
    "IC50 [µM]": 50
  },
  {
    "compound": "C[C@H]1[C@H](C)CC[C@]2(C(=O)O)CC[C@]3(C)C(=CC[C@@H]4[C@@]5(C)CCC(=O)C(C)(C)[C@@H]5CC[C@]43C)[C@H]12 [URSONIC ACID]",
    "tgt": "HCT-116",
    "IC50 [µM]": 47
  },
  {
    "compound": "C=C(C)[C@@H]1CC[C@]2(C(=O)OCc3oc(=O)oc3C)CC[C@]3(C)[C@H](CC[C@@H]4[C@@]5(C)CC[C@H](O)C(C)(C)[C@@H]5CC[C@]43C)[C@@H]12",
    "tgt": "HCT-116",
    "IC50 [µM]": 17
  },
  {
    "compound": "CC1=CC[C@]2(C(=O)O)CC[C@]3(C)[C@H](CC[C@@H]4[C@@]5(C)CCC(=O)C(C)(C)[C@@H]5CC[C@]43C)[C@H]2[C@@H]1C",
    "tgt": "HCT-116",
    "IC50 [µM]": 32
  }
]

Query compound follows.
IN: Given the entry `CC1(C)C=C2[C@H]3CC[C@@H]4[C@@]5(C)Cc6cccnc6C(C)(C)[C@@H]5CC[C@@]4(C)[C@]3(C)CC[C@@]2(C(=O)O)CC1` , report its measured IC50.
OUT: 47

Source listed as ChEMBL document CHEMBL5352436.
